# assay_procedure: Cytotoxicity against human HePAD38 cells assessed as reduction in cell viability incubated for 72 hrs by CCK8 assay
# Format: toxicity, cell-based
assay_readout: CC50 at 72 h (µM)

>  <test_smiles>
N#Cc1cc(NC(=O)c2cc(S(=O)(=O)NC3CCCC3)c(F)cc2Br)ccc1F

>  <unit_text>
µM

>  <relational_operator>
=

>  <number>
19.3

$$$$
>  <test_smiles>
Cc1cc(NC(=O)c2cc(NC(=O)NCc3ccc(C(C)(C)C)cc3)c(F)cc2Br)ccc1F

>  <unit_text>
µM

>  <relational_operator>
>

>  <number>
100

$$$$
>  <test_smiles>
Cc1cc(NC(=O)c2cc(NC(=O)c3ccc(C(F)(F)F)cc3)c(F)cc2Br)ccc1F

>  <unit_text>
µM

>  <relational_operator>
=

>  <number>
4.88

$$$$
>  <test_smiles>
Cc1cc(NC(=O)c2cc(NC(=O)C(=O)NC3CC3)c(F)cc2Br)ccc1F

>  <unit_text>
µM

>  <relational_operator>
=

>  <number>
17

$$$$
>  <test_smiles>
O=C(Nc1cc(F)c(F)c(F)c1)c1ccc(F)c(S(=O)(=O)N2CCC(O)CC2)c1

>  <unit_text>
µM

>  <relational_operator>
=

>  <number>
16.7

$$$$
>  <test_smiles>
Nc1ccn([C@@H]2CS[C@H](CO)O2)c(=O)n1

>  <unit_text>
µM

>  <relational_operator>
>

>  <number>
100

$$$$
>  <test_smiles>
Cc1cc(NC(=O)c2cc(NC(=O)C3CCCCC3)c(F)cc2Br)ccc1F

>  <unit_text>
µM

>  <relational_operator>
=

>  <number>
20.7

$$$$
>  <test_smiles>
CCNC(=S)Nc1cc(C(=O)Nc2ccc(F)c(C)c2)c(Br)cc1F

>  <unit_text>
µM

>  <relational_operator>
=

>  <number>
43.6

$$$$
>  <test_smiles>
O=C(Nc1ccc(F)cc1)c1cc(S(=O)(=O)N[C@H]2CCOC2)c(F)cc1Br

>  <unit_text>
µM

>  <relational_operator>
>

>  <number>
100

$$$$
>  <test_smiles>
Cc1cc(NC(=O)c2cc(NC(=O)NCc3ccc(C(F)(F)F)cc3)c(F)cc2Br)ccc1F

>  <unit_text>
µM

>  <relational_operator>
=

>  <number>
11.8

$$$$

* * *

# assay_procedure: Cmax in Sprague-Dawley rat at 20 mg/kg, po by LC-MS/MS analysis
# Format: ADME, organism-based
# Set-up: dose 20 mg/kg, route po
# test_settings: in vivo
assay_readout: Cmax (ng/mL)

>  <test_smiles>
C=CCNC(=S)Nc1cc(C(=O)Nc2ccc(F)c(C)c2)c(C)cc1F

>  <assay_readout>
Cmax

>  <number>
4770

$$$$

* * *

# assay_procedure: Half life in Sprague-Dawley rat at 20 mg/kg, po by LC-MS/MS analysis
# Assay type: ADME, organism-based
# test_settings: in vivo

>  <test_smiles>
C=CCNC(=S)Nc1cc(C(=O)Nc2ccc(F)c(C)c2)c(C)cc1F

>  <half-life / h>
1.67

$$$$

* * *

Listed below: CC50 at 72 h values for each entry.
# assay_procedure: Cytotoxicity against human HePAD38 cells assessed as reduction in cell viability incubated for 72 hrs by CCK8 assay
# Assay type: toxicity, cell-based

>  <compound>
Cc1cc(NC(=O)c2cc(NC(=O)NCc3ccc(O)cc3)c(F)cc2Br)ccc1F

>  <relational_operator>
=

>  <CC50 at 72 h (µM)>
1.99

$$$$
>  <compound>
O=C(Nc1ccc(F)cc1)c1cc(S(=O)(=O)NC2CCCC2)c(F)cc1Br

>  <relational_operator>
=

>  <CC50 at 72 h (µM)>
58

$$$$
>  <compound>
Cc1cc(NC(=O)c2cc(NC(=O)C(=O)NC(C)C)c(F)cc2Br)ccc1F

>  <relational_operator>
>

>  <CC50 at 72 h (µM)>
100

$$$$
>  <compound>
Cc1cc(NC(=O)c2cc(NC(=O)C3CCCC3)c(F)cc2Br)ccc1F

>  <relational_operator>
>

>  <CC50 at 72 h (µM)>
100

$$$$
>  <compound>
Cc1cc(NC(=O)c2cc(NC(=O)NC3CCC(O)CC3)c(F)cc2Br)ccc1F (stereo not given)

>  <relational_operator>
>

>  <CC50 at 72 h (µM)>
100

$$$$
